- MEASURED_ON: ATR (Homo sapiens)
- Construct: obtained from HeLa nuclear extract (CIL Biotech, Mons, Belgium) by immunoprecipitation with rabbit polyclonal antiserum raised to amino acids 400-480 of ATR; host or cells: HeLa nuclear extract
- ASSAY: Enzyme Assay - ATR (Test (a))
- Type: biochemical
MEASUREMENT_KIND: IC50

Data request: API: value(readout=IC50, system=ATR (Homo sapiens)) for record `Cc1cc2c(-c3nc(N4CCOCC4)cc(C4(S(C)(=O)=O)CC4)n3)cccc2[nH]1`
Data returned: 27.5 nM

----------
- MEASURED_ON: mTOR (Homo sapiens)
- ASSAY: Enzyme - mTOR Kinase Assay (Echo)
- TEST_CONTEXT: recombinant FLAG-tagged mTOR (1362-2549); AlphaScreen; ATP 20 μM
pIC50: −log10 of the molar value.
Please enter Satisfied where pIC50 is greater than or equal to 6, and Not satisfied where it is lower.

COMPOUND	CLASS_NAME
COc1cc(-c2nc(N3CCOC[C@H]3C)cc(C3(S(C)(=O)=O)CC3)n2)c2cc[nH]c2c1 [Example 3.07]	Satisfied
C[C@H]1COCCN1c1cc(C2(S(=O)(=O)C3CC3)CCOCC2)nc(-c2cccc3[nH]ccc23)n1 [Example 2.02]	Satisfied
C[C@H]1COCCN1c1cc(C2(S(C)(=O)=O)CCCC2)nc(-c2cccc3[nH]ccc23)n1 [Example 2.03]	Satisfied

Data request: Form field: pIC50 at least 6? Entry: CS(=O)(=O)C1(c2cc(N3CCOCC3)nc(-c3cc(Cl)cc4[nH]ccc34)n2)CC1 [Example 1.06]
Data returned: Satisfied

Data request: Can you handle CC(C)S(=O)(=O)C1(c2cc(N3CCOC[C@H]3C)nc(-c3cccc4[nH]ccc34)n2)CCNCC1 [Example 3.25] next?
Data returned: Not satisfied

Data request: Can you handle CS(=O)(=O)C1(c2cc(N3CCOCC3)nc(-c3cccc4[nH]ccc34)n2)CCNCC1 [Example 1.08] next?
Data returned: Satisfied

----------
- MEASURED_ON: mTOR (Homo sapiens, UniProt P42345)
- Sequence (P42345 1362-2549): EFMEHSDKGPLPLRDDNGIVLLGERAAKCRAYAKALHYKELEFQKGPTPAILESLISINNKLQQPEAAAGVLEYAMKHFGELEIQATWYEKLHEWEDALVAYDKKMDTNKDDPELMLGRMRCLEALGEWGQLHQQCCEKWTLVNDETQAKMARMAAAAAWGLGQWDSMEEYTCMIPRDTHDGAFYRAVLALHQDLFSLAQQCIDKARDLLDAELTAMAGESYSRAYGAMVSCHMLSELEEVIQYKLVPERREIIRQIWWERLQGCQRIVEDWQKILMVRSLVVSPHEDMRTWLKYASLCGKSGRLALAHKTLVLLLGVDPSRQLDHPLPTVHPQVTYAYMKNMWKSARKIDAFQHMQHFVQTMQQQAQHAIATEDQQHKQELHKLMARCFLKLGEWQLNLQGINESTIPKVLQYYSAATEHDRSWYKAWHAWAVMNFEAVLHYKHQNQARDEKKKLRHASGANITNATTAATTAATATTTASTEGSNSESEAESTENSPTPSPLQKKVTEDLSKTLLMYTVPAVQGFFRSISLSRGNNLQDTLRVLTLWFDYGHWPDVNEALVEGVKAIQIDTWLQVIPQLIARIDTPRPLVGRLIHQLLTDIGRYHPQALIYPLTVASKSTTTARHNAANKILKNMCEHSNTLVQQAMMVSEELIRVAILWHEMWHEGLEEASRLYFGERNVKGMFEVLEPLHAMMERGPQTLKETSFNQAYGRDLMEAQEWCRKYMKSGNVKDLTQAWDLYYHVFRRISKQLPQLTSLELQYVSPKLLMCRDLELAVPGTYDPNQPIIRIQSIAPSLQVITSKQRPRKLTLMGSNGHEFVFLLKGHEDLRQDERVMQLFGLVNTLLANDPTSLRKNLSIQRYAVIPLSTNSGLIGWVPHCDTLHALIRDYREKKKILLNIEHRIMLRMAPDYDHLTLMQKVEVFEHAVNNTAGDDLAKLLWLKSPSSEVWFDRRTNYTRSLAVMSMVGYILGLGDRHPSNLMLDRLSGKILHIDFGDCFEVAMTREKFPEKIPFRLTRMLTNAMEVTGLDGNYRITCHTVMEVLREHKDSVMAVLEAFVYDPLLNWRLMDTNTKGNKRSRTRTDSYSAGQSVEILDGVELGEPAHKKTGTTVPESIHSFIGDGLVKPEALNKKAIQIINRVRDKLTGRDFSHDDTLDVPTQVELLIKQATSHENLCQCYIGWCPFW
- ASSAY: Enzyme - mTOR Kinase Assay (Echo)
- TEST_CONTEXT: recombinant FLAG-tagged mTOR (1362-2549); AlphaScreen; ATP 20 μM
MEASUREMENT_KIND: IC50 (nM)
Give a bare numeral; the unit nM is implied.

SAMPLE_SMILES	DISPLAY_UNIT	IC50
CS(=O)(=O)C1(c2cc(N3CCOCC3)nc(-c3cccc4[nH]ccc34)n2)CC1	nM	179

Data request: // query IC50 value for entry `CC(C)S(=O)(=O)C1(c2cc(N3CCOC[C@H]3C)nc(-c3cccc4[nH]ccc34)n2)CC1`
Data returned: 89.1

Data request: Can you handle `CS(=O)(=O)C1(c2cc(N3CC4CCC(C3)O4)nc(-c3cccc4[nH]ccc34)n2)CC1` next?
Data returned: 21

Data request: Can you handle `Cc1cc(-c2nc(N3CCOC[C@H]3C)cc(C3(S(C)(=O)=O)CCOCC3)n2)c2cc[nH]c2c1` next?
Data returned: 451

----------
- MEASURED_ON: ATR (Homo sapiens, UniProt Q13535)
- Construct: obtained from HeLa nuclear extract (CIL Biotech, Mons, Belgium) by immunoprecipitation with rabbit polyclonal antiserum raised to amino acids 400-480 of ATR; host or cells: HeLa nuclear extract
- Sequence (Q13535 whole entry, the tested form may be a part): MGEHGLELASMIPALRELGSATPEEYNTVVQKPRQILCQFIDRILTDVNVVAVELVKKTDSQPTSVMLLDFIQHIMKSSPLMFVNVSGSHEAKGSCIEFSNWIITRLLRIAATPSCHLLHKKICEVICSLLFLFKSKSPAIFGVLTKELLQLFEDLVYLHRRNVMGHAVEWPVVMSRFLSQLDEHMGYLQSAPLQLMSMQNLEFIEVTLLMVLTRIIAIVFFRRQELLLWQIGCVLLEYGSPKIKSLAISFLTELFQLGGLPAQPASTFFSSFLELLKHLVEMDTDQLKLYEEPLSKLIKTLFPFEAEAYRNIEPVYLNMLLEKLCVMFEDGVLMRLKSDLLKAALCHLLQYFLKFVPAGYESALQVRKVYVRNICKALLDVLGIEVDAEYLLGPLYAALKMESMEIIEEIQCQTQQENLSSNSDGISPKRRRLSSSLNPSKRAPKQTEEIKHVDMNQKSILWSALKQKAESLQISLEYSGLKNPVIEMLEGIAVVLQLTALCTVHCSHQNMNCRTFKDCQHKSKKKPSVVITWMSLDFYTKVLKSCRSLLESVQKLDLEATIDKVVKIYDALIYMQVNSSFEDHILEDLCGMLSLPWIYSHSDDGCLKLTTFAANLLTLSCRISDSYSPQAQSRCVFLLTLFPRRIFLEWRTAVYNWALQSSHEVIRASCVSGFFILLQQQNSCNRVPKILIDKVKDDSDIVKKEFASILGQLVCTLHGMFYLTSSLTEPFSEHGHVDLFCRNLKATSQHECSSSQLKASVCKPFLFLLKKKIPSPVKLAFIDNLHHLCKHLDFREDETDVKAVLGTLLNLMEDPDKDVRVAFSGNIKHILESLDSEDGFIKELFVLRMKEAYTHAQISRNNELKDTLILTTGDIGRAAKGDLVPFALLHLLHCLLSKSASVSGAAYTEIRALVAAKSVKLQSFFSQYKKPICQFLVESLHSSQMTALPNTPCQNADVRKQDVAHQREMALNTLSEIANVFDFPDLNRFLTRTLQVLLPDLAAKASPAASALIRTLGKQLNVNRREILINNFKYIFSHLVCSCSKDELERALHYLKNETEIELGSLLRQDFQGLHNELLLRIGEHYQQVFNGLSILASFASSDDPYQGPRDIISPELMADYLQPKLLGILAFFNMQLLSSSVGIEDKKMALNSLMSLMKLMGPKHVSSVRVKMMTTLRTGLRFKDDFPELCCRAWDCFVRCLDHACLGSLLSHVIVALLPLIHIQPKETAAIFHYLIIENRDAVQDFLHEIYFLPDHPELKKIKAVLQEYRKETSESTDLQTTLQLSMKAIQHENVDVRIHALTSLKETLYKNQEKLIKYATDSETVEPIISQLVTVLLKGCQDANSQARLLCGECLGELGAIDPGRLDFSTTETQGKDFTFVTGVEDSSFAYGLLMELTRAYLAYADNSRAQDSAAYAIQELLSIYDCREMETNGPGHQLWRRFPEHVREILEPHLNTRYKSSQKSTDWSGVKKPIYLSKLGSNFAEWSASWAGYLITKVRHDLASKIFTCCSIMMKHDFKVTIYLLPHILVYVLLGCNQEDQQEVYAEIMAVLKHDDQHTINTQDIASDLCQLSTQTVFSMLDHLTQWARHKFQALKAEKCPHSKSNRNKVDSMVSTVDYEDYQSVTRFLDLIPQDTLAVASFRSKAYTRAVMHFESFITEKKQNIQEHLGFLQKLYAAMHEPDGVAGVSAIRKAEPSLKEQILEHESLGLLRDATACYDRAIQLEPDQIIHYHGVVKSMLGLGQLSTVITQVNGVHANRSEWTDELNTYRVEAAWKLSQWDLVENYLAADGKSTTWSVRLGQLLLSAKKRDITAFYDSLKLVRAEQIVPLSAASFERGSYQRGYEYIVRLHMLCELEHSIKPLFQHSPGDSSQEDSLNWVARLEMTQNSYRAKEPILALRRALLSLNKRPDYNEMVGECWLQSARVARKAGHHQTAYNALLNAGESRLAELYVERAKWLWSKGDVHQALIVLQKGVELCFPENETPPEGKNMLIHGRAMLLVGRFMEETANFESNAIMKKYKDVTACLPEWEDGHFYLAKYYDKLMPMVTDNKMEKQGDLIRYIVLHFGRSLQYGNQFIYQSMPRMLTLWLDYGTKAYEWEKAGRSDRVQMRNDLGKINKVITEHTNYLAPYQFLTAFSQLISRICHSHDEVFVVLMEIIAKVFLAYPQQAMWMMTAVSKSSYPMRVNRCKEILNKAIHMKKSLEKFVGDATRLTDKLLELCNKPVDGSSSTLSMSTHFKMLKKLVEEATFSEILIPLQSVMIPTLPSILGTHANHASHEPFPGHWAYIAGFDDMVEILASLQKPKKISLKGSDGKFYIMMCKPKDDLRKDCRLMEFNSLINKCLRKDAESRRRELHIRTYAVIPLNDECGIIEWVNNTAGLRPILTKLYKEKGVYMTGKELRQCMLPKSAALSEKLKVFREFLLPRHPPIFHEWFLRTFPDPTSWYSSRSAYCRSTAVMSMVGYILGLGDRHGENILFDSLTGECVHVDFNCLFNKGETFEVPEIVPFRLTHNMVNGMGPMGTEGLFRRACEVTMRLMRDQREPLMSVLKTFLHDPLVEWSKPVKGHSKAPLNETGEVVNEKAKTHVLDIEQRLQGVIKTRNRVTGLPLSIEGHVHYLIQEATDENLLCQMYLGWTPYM
- Sequence (Q8WXE1 whole entry partner, the tested form may be a part): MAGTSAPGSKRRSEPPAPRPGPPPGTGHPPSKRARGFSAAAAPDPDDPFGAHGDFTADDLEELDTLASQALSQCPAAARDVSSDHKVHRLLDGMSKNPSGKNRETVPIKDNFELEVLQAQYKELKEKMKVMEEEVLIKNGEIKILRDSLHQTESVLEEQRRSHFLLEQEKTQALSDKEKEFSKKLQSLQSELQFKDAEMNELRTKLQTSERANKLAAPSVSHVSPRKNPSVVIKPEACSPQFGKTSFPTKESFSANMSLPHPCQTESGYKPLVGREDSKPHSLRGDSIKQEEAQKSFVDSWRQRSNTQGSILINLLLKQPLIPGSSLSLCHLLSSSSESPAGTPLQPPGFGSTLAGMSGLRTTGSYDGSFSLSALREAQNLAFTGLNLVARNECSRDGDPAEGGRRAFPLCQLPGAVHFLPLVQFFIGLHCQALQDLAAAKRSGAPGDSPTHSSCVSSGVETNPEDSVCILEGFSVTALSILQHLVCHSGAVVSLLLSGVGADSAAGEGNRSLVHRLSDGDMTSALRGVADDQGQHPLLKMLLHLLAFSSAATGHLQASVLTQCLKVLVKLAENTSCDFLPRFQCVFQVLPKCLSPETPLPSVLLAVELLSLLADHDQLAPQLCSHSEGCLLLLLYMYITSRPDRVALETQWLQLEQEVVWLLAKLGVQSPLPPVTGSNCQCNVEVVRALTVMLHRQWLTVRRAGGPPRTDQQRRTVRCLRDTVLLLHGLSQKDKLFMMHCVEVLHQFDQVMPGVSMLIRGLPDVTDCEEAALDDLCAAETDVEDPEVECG
- ASSAY: Enzyme Assay - ATR (Test (a));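 note: kinase activity of bead-bound ATR toward a GST-p53 N-terminal fragment substrate, 1 h at 37 °C, read by chemiluminescence, with inhibitor-free wells as control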
- Assay type: biochemical
- TEST_CONTEXT: ATR immunoprecipitated from HeLa nuclear extract; 3 μM ATP; average of individual tests; read-out: ATR average IC50
MEASUREMENT_KIND: pIC50
In plain terms, pIC50 is the concentration in mol/L turned into minus its base-10 logarithm.

Past entries and their recorded results:
COMPOUND	pIC50
O=S(=O)(C1CC1)C1(c2cc(N3CCOCC3)nc(-c3cccc4[nH]ccc34)n2)CCNCC1 [Example 1.14]	7.65
Cc1cc2c(-c3nc(N4CCOC[C@H]4C)cc(C4(S(C)(=O)=O)CCOCC4)n3)cccc2[nH]1 [Example 3.10]	8.45
C[C@@H]1COCCN1c1cc(C2(S(C)(=O)=O)CC2)nc(-c2cc(Cl)cc3[nH]ccc23)n1 [Example 3.05]	8.37

Data request: // query pIC50 value for entry CC(C)S(=O)(=O)C1(c2cc(N3CCOCC3)nc(-c3cccc4[nH]ccc34)n2)CC1 [Example 1.11]
Data returned: 7.88

Data request: Can you handle C[C@@H]1COCCN1c1cc(C2(S(C)(=O)=O)CC2)nc(-c2cc(F)cc3[nH]ccc23)n1 [Example 3.06] next?
Data returned: 8.46

Data request: Can you handle C[C@H]1COCCN1c1cc(C2(S(C)(=O)=O)CCCC2)nc(-c2cccc3[nH]ccc23)n1 [Example 2.03] next?
Data returned: 8.21

Data request: Can you handle C[C@@H]1COCCN1c1cc(C2(S(C)(=O)=O)CCOCC2)nc(-c2cc(C#N)cc3[nH]ccc23)n1 [Example 3.14] next?
Data returned: 7.85

Data request: Can you handle CS(=O)(=O)C1(c2cc(N3CCOCC3)nc(-c3cc(C#N)cc4[nH]ccc34)n2)CC1 [Example 1.05] next?
Data returned: 7.18

Data request: Can you handle CS(=O)(=O)C1(c2cc(N3CCOCC3)nc(-c3cccc4[nH]ccc34)n2)CCOCC1 [Example 1.09] next?
Data returned: 8.43

Data request: Can you handle C[C@@H]1COCCN1c1cc(C2(S(=O)(=O)C3CC3)CCNCC2)nc(-c2cccc3[nH]ccc23)n1 [Example 3.18] next?
Data returned: 8.12

Data request: Can you handle Cc1cc(-c2nc(N3CCOCC3)cc(C3(S(C)(=O)=O)CC3)n2)c2cc[nH]c2c1 [Example 1.02] next?
Data returned: 8.12

Data request: Can you handle CCS(=O)(=O)C1(c2cc(N3CCOCC3)nc(-c3cccc4[nH]ccc34)n2)CC1 [Example 1.10] next?
Data returned: 7.82

Data request: Can you handle CS(=O)(=O)C1(c2cc(N3CCOCC3)nc(-c3cc(Cl)cc4[nH]ccc34)n2)CC1 [Example 1.06] next?
Data returned: 7.80

Data request: Can you handle C[C@@H]1COCCN1c1cc(C2(S(=O)(=O)C3CC3)CC2)nc(-c2cccc3[nH]ccc23)n1 [Example 3.17] next?
Data returned: 8.65

Data request: Can you handle C[C@@H]1COCCN1c1cc(C2(S(=O)(=O)C3CC3)CCOCC2)nc(-c2cccc3[nH]ccc23)n1 [Example 3.19] next?
Data returned: 7.01

----------
- MEASURED_ON: mTOR (Homo sapiens, UniProt P42345)
- ASSAY: Enzyme - mTOR Kinase Assay (Echo)
- TEST_CONTEXT: recombinant FLAG-tagged mTOR (1362-2549); AlphaScreen; ATP 20 μM
MEASUREMENT_KIND: pIC50
In plain terms, pIC50 is the concentration in mol/L turned into minus its base-10 logarithm.

SAMPLE_SMILES	RESULT
C[C@@H]1COCCN1c1cc(C2(S(C)(=O)=O)CC2)nc(-c2cc(Cl)cc3[nH]ccc23)n1	7.26

Data request: API: value(readout=pIC50, system=mTOR (Homo sapiens, UniProt P42345)) for record `CCS(=O)(=O)C1(c2cc(N3CCOC[C@H]3C)nc(-c3cccc4[nH]ccc34)n2)CCNCC1`
Data returned: 6.26

Data request: Can you handle `Cc1cc2c(-c3nc(N4CCOCC4)cc(C4(S(C)(=O)=O)CC4)n3)cccc2[nH]1` next?
Data returned: 6.78

Data request: Can you handle `CCS(=O)(=O)C1(c2cc(N3CCOCC3)nc(-c3cccc4[nH]ccc34)n2)CC1` next?
Data returned: 7.02

----------
- MEASURED_ON: mTOR (Homo sapiens, UniProt P42345)
- ASSAY: Enzyme - mTOR Kinase Assay (Echo);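 note: enzyme expressed in HEK293 cells, 2 h incubation at room temperature, read-out is phosphorylation of a biotinylated peptide substrate detected with an anti-phospho p70 S6 Kinase (T389) antibody, inhibition lowers signal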
- TEST_CONTEXT: recombinant FLAG-tagged mTOR (1362-2549); AlphaScreen; ATP 20 μM
Records here are stratified by IC50; strata: low: < 100 nM; moderate: ≥ 100 nM and < 400 nM; high: ≥ 400 nM

SAMPLE_SMILES	MEASURED_ON	CLASS_NAME
Cc1cc2c(-c3nc(N4CCOC[C@H]4C)cc(C4(S(C)(=O)=O)CCOCC4)n3)cccc2[nH]1	mTOR (Homo sapiens, UniProt P42345)	moderate
COc1cc(-c2nc(N3CCOC[C@H]3C)cc(C3(S(C)(=O)=O)CCOCC3)n2)c2cc[nH]c2c1	mTOR (Homo sapiens, UniProt P42345)	low
C[C@@H]1COCCN1c1cc(C2(S(C)(=O)=O)CCOCC2)nc(-c2cccc3[nH]ccc23)n1	mTOR (Homo sapiens, UniProt P42345)	moderate
CC(C)S(=O)(=O)C1(c2cc(N3CCOC[C@H]3C)nc(-c3cccc4[nH]ccc34)n2)CCOCC1	mTOR (Homo sapiens, UniProt P42345)	high
C[C@H]1COCCN1c1cc(C2(S(C)(=O)=O)CCOCC2)nc(-c2cccc3[nH]ccc23)n1	mTOR (Homo sapiens, UniProt P42345)	moderate

Data request: // bin(item) where item = `C[C@@H]1COCCN1c1cc(C2(S(=O)(=O)C3CC3)CCNCC2)nc(-c2cccc3[nH]ccc23)n1`
Data returned: moderate

Data request: Can you handle `CCS(=O)(=O)C1(c2cc(N3CCOC[C@H]3C)nc(-c3cccc4[nH]ccc34)n2)CC1` next?
Data returned: low

Data request: Can you handle `C[C@@H]1COCCN1c1cc(C2(S(=O)(=O)C3CC3)CCOCC2)nc(-c2cccc3[nH]ccc23)n1` next?
Data returned: high

Data request: Can you handle `C[C@@H]1COCCN1c1cc(C2(S(C)(=O)=O)CC2)nc(-c2cc(C#N)cc3[nH]ccc23)n1` next?
Data returned: moderate

Data request: Can you handle `Cc1cc2c(-c3nc(N4CCOC[C@H]4C)cc(C4(S(C)(=O)=O)CC4)n3)cccc2[nH]1` next?
Data returned: low

Data request: Can you handle `O=S(=O)(C1CC1)C1(c2cc(N3CCOCC3)nc(-c3cccc4[nH]ccc34)n2)CCOCC1` next?
Data returned: high

Data request: Can you handle `C[C@@H]1COCCN1c1cc(C2(S(C)(=O)=O)CCOCC2)nc(-c2cc(Cl)cc3[nH]ccc23)n1` next?
Data returned: high

Data request: Can you handle `CC(C)S(=O)(=O)C1(c2cc(N3CCOCC3)nc(-c3cccc4[nH]ccc34)n2)CC1` next?
Data returned: moderate

Data request: Can you handle `O=S(=O)(C1CC1)C1(c2cc(N3CCOCC3)nc(-c3cccc4[nH]ccc34)n2)CC1` next?
Data returned: high

Data request: Can you handle `C[C@@H]1COCCN1c1cc(C2(S(C)(=O)=O)CCOCC2)nc(-c2cc(C#N)cc3[nH]ccc23)n1` next?
Data returned: high

Data request: Can you handle `Cc1cc(-c2nc(N3CCOCC3)cc(C3(S(C)(=O)=O)CC3)n2)c2cc[nH]c2c1` next?
Data returned: moderate

Data request: Can you handle `C[C@H]1COCCN1c1cc(C2(S(=O)(=O)C3CC3)CCNCC2)nc(-c2cccc3[nH]ccc23)n1` next?
Data returned: high

Data request: Can you handle `C[C@@H]1COCCN1c1cc(C2(S(C)(=O)=O)CCOCC2)nc(-c2cc(F)cc3[nH]ccc23)n1` next?
Data returned: moderate

Data request: Can you handle `C[C@@H]1COCCN1c1cc(C2(S(C)(=O)=O)CC2)nc(-c2cc(F)cc3[nH]ccc23)n1` next?
Data returned: low
